Source of measurements: patent US20260015426A1

Target: T1, hu-M-IL1RAP construct, positions S21-T367 (extracellular domain of the membrane form of human IL1RAP) (human, UniProt Q9NPH3 21-367)
T1 construct: Biotinylated when captured on the Biacore chip
T1 sequence: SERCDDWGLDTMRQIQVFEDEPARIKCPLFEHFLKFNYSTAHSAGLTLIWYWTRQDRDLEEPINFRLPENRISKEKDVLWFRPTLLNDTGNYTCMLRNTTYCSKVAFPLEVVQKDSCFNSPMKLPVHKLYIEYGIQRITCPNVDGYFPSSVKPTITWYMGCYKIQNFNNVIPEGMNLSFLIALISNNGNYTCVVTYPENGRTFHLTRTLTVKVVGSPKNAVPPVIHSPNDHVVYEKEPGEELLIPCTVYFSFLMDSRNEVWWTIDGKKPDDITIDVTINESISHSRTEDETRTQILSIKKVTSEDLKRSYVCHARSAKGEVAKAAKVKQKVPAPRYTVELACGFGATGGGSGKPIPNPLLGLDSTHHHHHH
Test: SPR, Fab analyte, 25 C
koff reference
State just the number; it will be interpreted in s⁻¹.

binder: K1 Fab (VL Y30W) (Fab, V domains shown, Fab with 8xHis tag) VH: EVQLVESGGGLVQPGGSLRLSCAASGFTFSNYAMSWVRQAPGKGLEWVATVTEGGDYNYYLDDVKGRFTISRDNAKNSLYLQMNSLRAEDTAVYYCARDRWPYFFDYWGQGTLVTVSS VL: DIQMTQSPSSLSASVGDRVTITCRASENIWSNLAWYQQKPGKSPKLLVYGAKNLADGVPSRFSGSGSGTDYTLTISSLQPEDFATYYCQHFWTTPRTFGGGTKVEIK
unit-of-measurement: s⁻¹
test-value: 0.00018
--
binder: K8 Fab (VL A51L) (Fab, V domains shown, Fab with 8xHis tag) VH: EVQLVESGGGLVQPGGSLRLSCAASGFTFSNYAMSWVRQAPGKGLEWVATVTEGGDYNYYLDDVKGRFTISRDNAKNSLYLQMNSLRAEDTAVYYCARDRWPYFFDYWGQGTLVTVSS VL: DIQMTQSPSSLSASVGDRVTITCRASENIYSNLAWYQQKPGKSPKLLVYGLKNLADGVPSRFSGSGSGTDYTLTISSLQPEDFATYYCQHFWTTPRTFGGGTKVEIK
unit-of-measurement: s⁻¹
test-value: 6.76e-05
--
binder: K12 Fab (VL W92I) (Fab, V domains shown, Fab with 8xHis tag) VH: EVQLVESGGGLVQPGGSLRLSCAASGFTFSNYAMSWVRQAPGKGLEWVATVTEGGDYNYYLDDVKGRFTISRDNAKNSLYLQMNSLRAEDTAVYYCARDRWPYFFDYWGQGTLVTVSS VL: DIQMTQSPSSLSASVGDRVTITCRASENIYSNLAWYQQKPGKSPKLLVYGAKNLADGVPSRFSGSGSGTDYTLTISSLQPEDFATYYCQHFITTPRTFGGGTKVEIK
unit-of-measurement: s⁻¹
test-value: 0.00023
--
binder: K3 Fab (VL W92K) (Fab, V domains shown, Fab with 8xHis tag) VH: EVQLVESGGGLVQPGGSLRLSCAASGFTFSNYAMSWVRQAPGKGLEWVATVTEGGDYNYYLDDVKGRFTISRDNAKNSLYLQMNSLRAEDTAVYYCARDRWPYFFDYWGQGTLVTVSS VL: DIQMTQSPSSLSASVGDRVTITCRASENIYSNLAWYQQKPGKSPKLLVYGAKNLADGVPSRFSGSGSGTDYTLTISSLQPEDFATYYCQHFKTTPRTFGGGTKVEIK
unit-of-measurement: s⁻¹
test-value: 0.000198
--
binder: H5 Fab (VH V51S/G54H) (Fab, V domains shown, Fab with 8xHis tag) VH: EVQLVESGGGLVQPGGSLRLSCAASGFTFSNYAMSWVRQAPGKGLEWVATSTEGHDYNYYLDDVKGRFTISRDNAKNSLYLQMNSLRAEDTAVYYCARDRWPYFFDYWGQGTLVTVSS VL: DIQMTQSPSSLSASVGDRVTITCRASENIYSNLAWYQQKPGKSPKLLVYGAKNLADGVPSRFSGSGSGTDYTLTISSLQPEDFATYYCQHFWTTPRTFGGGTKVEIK
unit-of-measurement: s⁻¹
test-value: 0.000235
--
binder: H4 Fab (VH F29Q) (Fab, V domains shown, Fab with 8xHis tag) VH: EVQLVESGGGLVQPGGSLRLSCAASGFTQSNYAMSWVRQAPGKGLEWVATVTEGGDYNYYLDDVKGRFTISRDNAKNSLYLQMNSLRAEDTAVYYCARDRWPYFFDYWGQGTLVTVSS VL: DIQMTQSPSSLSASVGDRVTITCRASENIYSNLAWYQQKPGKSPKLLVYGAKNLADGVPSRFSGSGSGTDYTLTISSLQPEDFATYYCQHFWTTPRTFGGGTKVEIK
unit-of-measurement: s⁻¹
test-value: 0.000231
--
binder: H1 Fab (VH R96A) (Fab, V domains shown, Fab with 8xHis tag) VH: EVQLVESGGGLVQPGGSLRLSCAASGFTFSNYAMSWVRQAPGKGLEWVATVTEGGDYNYYLDDVKGRFTISRDNAKNSLYLQMNSLRAEDTAVYYCARDAWPYFFDYWGQGTLVTVSS VL: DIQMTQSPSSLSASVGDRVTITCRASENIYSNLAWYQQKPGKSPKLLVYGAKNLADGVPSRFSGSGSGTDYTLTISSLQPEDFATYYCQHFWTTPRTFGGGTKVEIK
unit-of-measurement: s⁻¹
test-value: 0.000218
--
binder: K10 Fab (VL A51Y) (Fab, V domains shown, Fab with 8xHis tag) VH: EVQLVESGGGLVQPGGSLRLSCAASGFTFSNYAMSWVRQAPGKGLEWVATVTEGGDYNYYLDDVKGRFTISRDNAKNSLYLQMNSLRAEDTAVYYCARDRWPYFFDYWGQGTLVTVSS VL: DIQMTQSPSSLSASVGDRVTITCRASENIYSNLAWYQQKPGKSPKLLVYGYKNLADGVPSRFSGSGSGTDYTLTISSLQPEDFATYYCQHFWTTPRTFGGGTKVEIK
unit-of-measurement: s⁻¹
test-value: 5.06e-05

// field: koff; key: K6 Fab (VL Y30W/W92F) (Fab, V domains shown, Fab with 8xHis tag) VH: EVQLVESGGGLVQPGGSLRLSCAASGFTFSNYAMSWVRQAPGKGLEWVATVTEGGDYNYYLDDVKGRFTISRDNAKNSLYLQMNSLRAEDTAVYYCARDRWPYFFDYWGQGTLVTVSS VL: DIQMTQSPSSLSASVGDRVTITCRASENIWSNLAWYQQKPGKSPKLLVYGAKNLADGVPSRFSGSGSGTDYTLTISSLQPEDFATYYCQHFFTTPRTFGGGTKVEIK ; value = 6.25e-05

For K2 Fab (VL L33G) (Fab, V domains shown, Fab with 8xHis tag) VH: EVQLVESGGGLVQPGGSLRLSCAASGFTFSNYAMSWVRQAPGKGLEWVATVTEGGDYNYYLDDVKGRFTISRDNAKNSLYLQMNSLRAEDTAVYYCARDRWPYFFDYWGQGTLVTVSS VL: DIQMTQSPSSLSASVGDRVTITCRASENIYSNGAWYQQKPGKSPKLLVYGAKNLADGVPSRFSGSGSGTDYTLTISSLQPEDFATYYCQHFWTTPRTFGGGTKVEIK the binder record lists koff as 0.000158
